I'd be grateful if you could share measured pIC50 for these entries.
Assay system: human H-PGDS (Homo sapiens (Human))
Sequence (O60760 whole entry): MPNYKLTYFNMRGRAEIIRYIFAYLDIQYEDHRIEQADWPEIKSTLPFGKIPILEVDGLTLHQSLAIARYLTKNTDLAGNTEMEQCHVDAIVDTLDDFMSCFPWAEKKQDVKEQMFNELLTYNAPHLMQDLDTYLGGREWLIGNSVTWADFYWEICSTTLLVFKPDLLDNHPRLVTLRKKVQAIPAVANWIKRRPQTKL
Assay info: Human H-PGDS inhibitory activity (enzyme reaction with PGH2, PGD2 ELISA)
Type: biochemical
Measurement conditions: human recombinant H-PGDS 1.6 μg/mL, PGH2 50 μmol/L
The quantity pIC50 is defined as the negative base-10 logarithm of the molar concentration.

Measured pIC50 of C[C@@H](CC(=O)O)C12CCC(NC(=O)N3CCC(c4ncc(F)c5[nH]cc(F)c45)CC3)(CC1)CC2 (single isomer, unassigned) [enantiomer A] : 8.30

Measured pIC50 of C[C@H](CC(=O)O)C12CCC(NC(=O)N3CCC(c4ncc(F)c5[nH]cc(F)c45)CC3)(CC1)CC2 (single isomer, unassigned) [enantiomer B] : 8.22

The reported numbers originate from patent US20250195518A1.
